Biological target: T1, mouse GLP-1 receptor (mGLP-1r) (Mus musculus, UniProt O35659)
T1 construct: expressed in transfected cells; host or cells: HEK293s or CHO cells
T1 sequence (O35659 22-463): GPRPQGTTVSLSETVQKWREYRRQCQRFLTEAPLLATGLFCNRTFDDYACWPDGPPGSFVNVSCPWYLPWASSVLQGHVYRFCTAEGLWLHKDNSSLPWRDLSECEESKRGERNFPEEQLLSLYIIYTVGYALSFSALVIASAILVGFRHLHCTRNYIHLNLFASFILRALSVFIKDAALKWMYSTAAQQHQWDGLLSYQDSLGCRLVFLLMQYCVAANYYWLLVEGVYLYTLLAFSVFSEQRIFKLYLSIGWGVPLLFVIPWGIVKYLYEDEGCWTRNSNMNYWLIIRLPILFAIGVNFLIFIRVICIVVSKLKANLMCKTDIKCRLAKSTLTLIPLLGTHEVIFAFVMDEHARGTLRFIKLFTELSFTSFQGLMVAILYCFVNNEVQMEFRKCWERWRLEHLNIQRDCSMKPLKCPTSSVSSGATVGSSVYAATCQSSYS
Assay: BSA-cAMP assay, cells expressing mouse GLP-1 receptor
Type: cell-based
Conditions: Batch 1; BSA-cAMP assay; read-out: mGLP1r cAMP activity EC50
For each entry below, report its pEC50 value.
Give bare numbers, as −log10 of the molar value.

Illustrative cases are given below, each with its answer.
> print(dat)
                                   molecule  recorded.value
1  IP375 (protein) YSEGTHTSLFSKLLERQAIDEFIAWLLKGGAAAGGSGSTASSGSGSATGGGGAATHTCPPC            7.31
2  IP367 (protein) YSEGTFTSDYRILKERQAIDEFIAWLLKGGAAAGGSGSTASSGSGSATGGGGAATHTCPPC            6.41
3  IP301 (protein) YSEGTFTSDVSSYLEREAIDEFIAWLLKGGAAAGGSGSTASSGSGSATGGGGAATHTCPPC            8.72
4  IP394 (protein) YSEGMHTSDLSKLLERQAIDEFIAWLLKGGAAAGGSGSTASSGSGSATGGGGAATHTCPPC            8.00
5  IP306 (protein) YSEGTFTSDYSKLLERQAIDEFIAWLLKGGAAAGGSGSTASSGSGSATGGGGAATHTCPPC            9.60
6  IP378 (protein) YSEGTFTSLYRILLERQAIDEFIAWLLKGGAAAGGSGSTASSGSGSATGGGGAATHTCPPC            7.00
7  IP321 (protein) YSEGTFISDYSIAMDKIHQQDFVNWLLAGGAAAGGSGSTASSGSGSATGGGGAATHTCPPC            6.48

Consider the additional molecule presented here.
Per the record, IP364 (protein) YSEGTFTSDFSKLLERQAIDEFIAWLLKGGAAAGGSGSTASSGSGSATGGGGAATHTCPPC has pEC50 of 9.16
